Source of measurements: PubChem BioAssay (NCI)

Test system: CAKI-1 renal
ASSAY EXPLANATION: NCI-60 one-dose screen, 48 h (100 = growth as untreated, 0 = no growth, -100 = all killed)
PARTICULARS: 10 µM unless noted
About 83,000 compounds went through this panel and 20% of them were active in at least one assay; those are over-represented in the sample as a whole.
So I've got a bunch of compounds here, and I need their growth values.
Enter your answer as a number in %; do not include the unit.

Prompt: For COc1cc(OC)c(/C=C/S(=O)(=O)Cc2ccc(OC)c(N)n2)c(OC)c1 , what is its reported growth?
Response: 25.5

Prompt: Query (compound): CCCCCCCCOC(=O)CC[C@@H](C)[C@H]1CC[C@H]2[C@@H]3[C@H](OC(=O)CCN)C[C@@H]4C[C@H](OC(=O)CCN)CC[C@]4(C)[C@H]3C[C@H](OC(=O)CCN)[C@]12C ; field requested: growth
Response: 108

Prompt: # get_value(readout='growth', item= O=C1Nc2ccccc2/C1=C/C(=N/c1nnc(-c2ccc(Cl)cc2)s1)c1ccccc1 )
Response: 15

Prompt: Would you kindly share the measured growth for O=C(Cn1cc(CN2C(=O)c3ccccc3S2(=O)=O)nn1)Nc1ccc([N+](=O)[O-])cc1Cl ?
Response: 91.8

Prompt: Recorded growth for CCOC(=O)C12CCCC1=CC(=O)CC2 (centres undefined) , please?
Response: 103

Prompt: Dear colleague, I am looking for the recorded growth of the following compound: CN1CCN(Cc2ccc(NC(=O)c3cncc(C#Cc4cncc5nccnc45)c3)cc2C(F)(F)F)CC1
Response: 22.2

Prompt: Dear colleague, I am looking for the recorded growth of the following compound: CC1=N/C(=C\c2cccc(Br)c2)C(=O)O1
Response: 100

Prompt: # query: growth of entry O=C1Nc2ccccc2C12CC(c1ccccc1)=NN2 (centres undefined)
Response: 22.8

Prompt: Please give the measured growth for this compound: COc1ccc2nc(NC(=O)c3cccnc3Nc3cc(OC)c(OC)c(OC)c3)sc2c1
Response: 5.14
